# PROTOCOL_DETAILS: Metabolic stability in rat liver microsomes assessed as compound remaining in presence of NADPH cofactor under shaking condition for 10 mins measured after 60 mins by LC-MS/MS analysis
# Assay type: ADME, Microsome
# TEST_PARAMETERS: time 70 min, read-out: Stability
MEASURED_QUANTITY: remaining at 1.167 h
Answer format: number, then unit.

remaining at 1.167 h for CCNC(=O)c1noc(-c2cc(-c3ccc(C)cc3)c(O)cc2O)c1-c1ccc(CN2CCOCC2)cc1 is 23.6%

* * *

The entries below are paired with their reported IC50.
# Tested on: RAW264.7
# PROTOCOL_DETAILS: Cytotoxicity against mouse RAW264.7 cell assessed as inhibition of cell growth after 24 hrs by MTT assay
# Assay type: functional, cell-based
# TEST_PARAMETERS: RAW264.7, 24 h
The reply should contain only the number, in µM.

Observe how each entry below is paired with its result.
1. CNC(=O)c1noc(-c2cc(-c3ccc(C)cc3)c(O)cc2O)c1-c1ccc(CN2CCOCC2)cc1 : 11.3
2. CNC(=O)c1noc(-c2cc(-c3ccc(C)cc3)c(O)cc2O)c1-c1ccc(CN2CCCCC2)cc1 : 3.65
3. CCNC(=O)c1noc(-c2cc(-c3ccc(C)cc3)c(O)cc2O)c1-c1ccc(CN2CCOCC2)cc1 : 17.1

Alright, here's another molecule for you.
IC50 for CCNC(=O)c1noc(-c2cc(-c3ccc(C)cc3)c(O)cc2O)c1-c1ccc(CN2CCCCC2)cc1 is 3.87

* * *

# System: Candida albicans
# PROTOCOL_DETAILS: Synergetic antifungal activity against fluconazole-resistant Candida albicans 100 assessed as fractional inhibitory concentration index in presence of fluconazole by checker board microdilution assay
# Format: functional
The entries below are paired with their reported fractional inhibitory concentration index (FICI).
The reply should be a number, written without any unit.

1. CCNC(=O)c1noc(-c2cc(-c3ccc(C)cc3)c(O)cc2O)c1-c1ccc(CN2CCCCC2)cc1 : 0.02
2. CNC(=O)c1noc(-c2cc(-c3ccc(C)cc3)c(O)cc2O)c1-c1ccc(CN2CCOCC2)cc1 : 0.035
3. CNC(=O)c1noc(-c2cc(-c3ccc(C)cc3)c(O)cc2O)c1-c1ccc(CN2CCCCC2)cc1 : 0.047

Alright, here's another molecule for you.
fractional inhibitory concentration index (FICI) for CCNC(=O)c1noc(-c2cc(-c3ccc(C)cc3)c(O)cc2O)c1-c1ccc(CN2CCOCC2)cc1 is 0.033

* * *

# PROTOCOL_DETAILS: Metabolic stability in human liver microsomes assessed as intrinsic clearance in presence of NADPH cofactor under shaking condition for 10 mins measured after 5 to 60 mins by LC-MS/MS analysis
# Format: ADME, Microsome
# TEST_PARAMETERS: time 15-70 min
MEASURED_QUANTITY: CLint (mL/min/kg)
The reply should contain only the number, in mL/min/kg.

Observe how each entry below is paired with its result.
1) CCNC(=O)c1noc(-c2cc(-c3ccc(C)cc3)c(O)cc2O)c1-c1ccc(CN2CCOCC2)cc1 : 38.9
2) CCNC(=O)c1noc(-c2cc(-c3cccc(CC)c3)c(O)cc2O)c1-c1ccc(CN2CCOCC2)cc1 : 72.7
3) CNC(=O)c1noc(-c2cc(-c3ccc(C)cc3)c(O)cc2O)c1-c1ccc(CN2CCOCC2)cc1 : 50.3

Alright, here's another compound for you.
CLint for CNC(=O)c1noc(-c2cc(-c3ccc(C)cc3)c(O)cc2O)c1-c1ccc(CN2CCCCC2)cc1 is 28.8

* * *

# PROTOCOL_DETAILS: Half life in Sprague-Dawley rat at 10 mg/kg, iv measured upto 24 hrs by LC/MS/MS analysis
# Assay type: ADME, organism-based
# TEST_PARAMETERS: in vivo
MEASURED_QUANTITY: half-life (h)
The reply should contain only the number, in h.

half-life for CCNC(=O)c1noc(-c2cc(-c3ccc(C)cc3)c(O)cc2O)c1-c1ccc(CN2CCOCC2)cc1 is 1.26

* * *

# PROTOCOL_DETAILS: C0 in Sprague-Dawley rat at 10 mg/kg, iv measured upto 24 hrs by LC/MS/MS analysis
# Type: ADME, organism-based
# TEST_PARAMETERS: in vivo
MEASURED_QUANTITY: C0 at 24 h (ng/mL)
The reply should contain only the number, in ng/mL.

C0 at 24 h for CCNC(=O)c1noc(-c2cc(-c3ccc(C)cc3)c(O)cc2O)c1-c1ccc(CN2CCOCC2)cc1 is 4750

* * *

# TEST_TARGET: CYP2D6 (Homo sapiens, UniProt P10635)
# Sequence (P10635 whole entry): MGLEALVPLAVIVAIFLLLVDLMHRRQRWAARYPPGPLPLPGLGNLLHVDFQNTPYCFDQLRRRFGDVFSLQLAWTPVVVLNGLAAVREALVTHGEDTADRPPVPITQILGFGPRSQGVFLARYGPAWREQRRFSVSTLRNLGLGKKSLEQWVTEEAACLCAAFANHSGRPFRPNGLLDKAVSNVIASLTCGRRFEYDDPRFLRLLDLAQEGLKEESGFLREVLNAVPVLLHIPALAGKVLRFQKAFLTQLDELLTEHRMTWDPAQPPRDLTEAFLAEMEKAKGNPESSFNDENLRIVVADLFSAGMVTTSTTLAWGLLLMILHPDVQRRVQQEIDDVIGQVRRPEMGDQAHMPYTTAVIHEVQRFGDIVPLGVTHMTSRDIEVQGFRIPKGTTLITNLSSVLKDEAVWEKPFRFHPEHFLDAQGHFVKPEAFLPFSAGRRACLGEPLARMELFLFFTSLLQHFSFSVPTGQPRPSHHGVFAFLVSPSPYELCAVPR
# PROTOCOL_DETAILS: Inhibition of CYPD6 in human liver microsome at 10 uM using dextromethorphan as substrate incubated for 10 mins in presence of NADPH cofactor and fluconazole by LC-MS/MS analysis
# Assay type: ADME
# TEST_PARAMETERS: liver microsomes, probe dextromethorphan
MEASURED_QUANTITY: inhibition at 10 min, 10 µM (%)
The reply should contain only the number, in %.

inhibition at 10 min, 10 µM for CCNC(=O)c1noc(-c2cc(-c3ccc(C)cc3)c(O)cc2O)c1-c1ccc(CN2CCOCC2)cc1 is 36.4

* * *

# TEST_TARGET: UniProt:P10635
# PROTOCOL_DETAILS: Inhibition of CYPD6 in human liver microsome at 10 uM using dextromethorphan as substrate incubated for 10 mins in presence of NADPH cofactor by LC-MS/MS analysis
# Format: ADME
# TEST_PARAMETERS: liver microsomes, probe dextromethorphan
The entries below are paired with their reported inhibition at 10 min, 10 µM.
The reply should contain only the number, in %.

Observe how each entry below is paired with its result.
1. CNC(=O)c1noc(-c2cc(-c3ccc(C)cc3)c(O)cc2O)c1-c1ccc(CN2CCOCC2)cc1 : 86.3
2. CCNC(=O)c1noc(-c2cc(-c3ccc(C)cc3)c(O)cc2O)c1-c1ccc(CN2CCOCC2)cc1 : 36.9
3. CCNC(=O)c1noc(-c2cc(-c3ccc(C)cc3)c(O)cc2O)c1-c1ccc(CN2CCCCC2)cc1 : 76.6

inhibition at 10 min, 10 µM for CNC(=O)c1noc(-c2cc(-c3ccc(C)cc3)c(O)cc2O)c1-c1ccc(CN2CCCCC2)cc1 is 24.8

* * *

The entries below are paired with their reported inhibition at 10 min, 10 µM.
# TEST_TARGET: CYP3A4 (Homo sapiens)
# Sequence (P08684 whole entry): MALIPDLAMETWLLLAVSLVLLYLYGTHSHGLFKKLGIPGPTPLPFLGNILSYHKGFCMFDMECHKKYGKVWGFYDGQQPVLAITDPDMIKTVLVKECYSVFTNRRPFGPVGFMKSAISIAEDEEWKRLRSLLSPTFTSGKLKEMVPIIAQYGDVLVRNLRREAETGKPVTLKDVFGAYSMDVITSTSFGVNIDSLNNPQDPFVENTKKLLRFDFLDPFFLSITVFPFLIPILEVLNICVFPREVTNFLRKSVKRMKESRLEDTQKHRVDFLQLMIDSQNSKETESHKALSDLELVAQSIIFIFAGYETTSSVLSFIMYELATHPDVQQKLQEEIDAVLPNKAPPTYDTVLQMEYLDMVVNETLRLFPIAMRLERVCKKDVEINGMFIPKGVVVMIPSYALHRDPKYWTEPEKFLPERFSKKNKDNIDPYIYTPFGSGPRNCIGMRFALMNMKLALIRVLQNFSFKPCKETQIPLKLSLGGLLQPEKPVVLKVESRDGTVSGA
# PROTOCOL_DETAILS: Inhibition of CYP3A4 in human liver microsome at 10 uM using midazolam as substrate incubated for 10 mins in presence of NADPH cofactor by LC-MS/MS analysis
# Assay type: ADME
# TEST_PARAMETERS: liver microsomes, probe midazolam
The reply should contain only the number, in %.

Observe how each entry below is paired with its result.
1. CNC(=O)c1noc(-c2cc(-c3ccc(C)cc3)c(O)cc2O)c1-c1ccc(CN2CCOCC2)cc1 : 43.2
2. CNC(=O)c1noc(-c2cc(-c3ccc(C)cc3)c(O)cc2O)c1-c1ccc(CN2CCCCC2)cc1 : 17.7
3. CCNC(=O)c1noc(-c2cc(-c3ccc(C)cc3)c(O)cc2O)c1-c1ccc(CN2CCOCC2)cc1 : 36.7

Entry CCNC(=O)c1noc(-c2cc(-c3ccc(C)cc3)c(O)cc2O)c1-c1ccc(CN2CCCCC2)cc1 , CYP3A4 (Homo sapiens) data, inhibition at 10 min, 10 µM value: 39.8

* * *

# Tested on: Candida albicans
# PROTOCOL_DETAILS: Synergistic antifungal activity against fluconazole-resistant Candida albicans 632 assessed as inhibition of fungal growth in presence of fluconazole by checker board microdilution assay
# Type: functional
MEASURED_QUANTITY: MIC80 (µg/mL)
The reply should contain only the number, in µg/mL.

Observe how each entry below is paired with its result.
1) CCN(CC)C(=O)c1noc(-c2cc(-c3ccc(C)cc3)c(O)cc2O)c1-c1ccc(CN2CCCCC2)cc1 : 4
2) Cc1ccc(-c2cc(-c3onc(C(=O)N(C)C)c3-c3ccc(CN4CCOCC4)cc3)c(O)cc2O)cc1 : 8
3) CCNC(=O)c1noc(-c2cc(-c3ccc(Cl)cc3)c(O)cc2O)c1-c1ccc(CN2CCOCC2)cc1 : 8
4) Cc1ccc(-c2cc(-c3onc(C(=O)NC(C)C)c3-c3ccc(CN4CCCCC4)cc3)c(O)cc2O)cc1 : 2
5) CCNC(=O)c1noc(-c2cc(-c3ccc(C)cc3)c(O)cc2O)c1-c1ccc(CN2CCOCC2)cc1 : 0.125

MIC80 for CCNC(=O)c1noc(-c2cc(-c3cccc(C(C)C)c3)c(O)cc2O)c1-c1ccc(CN2CCOCC2)cc1 is 0.5

MIC80 for CCNC(=O)c1noc(-c2cc(-c3ccc(C)cc3)c(O)cc2O)c1-c1ccc(CN2CCCC2)cc1 is 4

MIC80 for CNC(=O)c1noc(-c2cc(-c3ccc(C)cc3)c(O)cc2O)c1-c1ccc(CN2CCCCC2)cc1 is 2

MIC80 for CCCNC(=O)c1noc(-c2cc(-c3ccc(C)cc3)c(O)cc2O)c1-c1ccc(CN2CCOCC2)cc1 is 32

MIC80 for CCNC(=O)c1noc(-c2cc(-c3cccc(F)c3)c(O)cc2O)c1-c1ccc(CN2CCOCC2)cc1 is 2

Value source: ChEMBL document CHEMBL5154804
